Hi there, I'd appreciate the recorded growth inhibition for every entry that follows.
Experiment: NCI Yeast Anticancer Drug Screen. Data for the sgs1 mgt1 strain (AID 161);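 also: 0% = growth of cultures given vehicle only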
Details: S. cerevisiae sgs1 mgt1 strain, at 5.0 µM (retest, dose inferred, filed as 0.5), hits give high values
Compounds without any hit were thinned out: in the full panel of roughly 79,000, 15% have a hit.
Express the result in % but write the number alone.

[Q] Fill in: growth inhibition of CCOC(=O)c1ccc([N+](=O)[O-])o1 is ___
[A] 3

[Q] What growth inhibition value was documented for this compound, COCCN1C(=O)C2c3[nH]c4ccccc4c3C3CCC(C(C)(C)C)CC3C2C1=O (stereo unspecified) ?
[A] -7

[Q] Give its growth inhibition value. Item: c1cc[c]([Sn]([NH]c2ncnc3[nH]cnc23)([NH]c2ncnc3[nH]cnc23)[c]2ccccc2)cc1
[A] 2

[Q] Quick one: growth inhibition for CSc1ccc2c(c1)S[S@@](=O)N2 ?
[A] 9

[Q] Which value of growth inhibition has been reported for COc1ccc(CC[N+]2(C)COc3cc4oc(=O)cc(C)c4cc3C2)cc1OC (stereo unspecified) in the records?
[A] 0

[Q] What value of growth inhibition has been recorded for this entry: O=C(O)c1ccc2c3c(ncnc13)-c1ccccc1C2=O
[A] 10

----------
Kindly state growth inhibition for each of the entries shown.
Experiment: NCI Yeast Anticancer Drug Screen. Data for the mec2-1 strain (AID 157)
Details: S. cerevisiae mec2-1 strain, at 5.0 µM (retest, dose inferred, filed as 0.5), hits give high values
Compounds without any hit were thinned out: in the full panel of roughly 79,000, 15% have a hit.
Expressed in %, but write only the number.

[Q] What does the record list as growth inhibition for CCOC1Oc2ccccc2-c2nc(SC)ncc21 (centres undefined) ?
[A] 14

[Q] Which growth inhibition value is on record for Cc1ccnc(NC(c2ccccc2)c2ccc3cccnc3c2O)c1 (centres undefined) ?
[A] -5

[Q] Any idea what its growth inhibition is? The compound is CC(CCNCCC#N)CC(C)(C)C (centres undefined)
[A] -4

[Q] Requested field: growth inhibition. Item: O=C(Nc1c(Cl)cccc1Cl)Oc1cccc2cccnc12
[A] 35

[Q] // growth inhibition lookup, key: O=C(CC1(O)C(=O)Nc2c(Cl)ccc(Cl)c21)c1ccc(Cl)cc1Cl (centres undefined)
[A] 13

[Q] Would you mind telling me what growth inhibition value was observed for O=C(CNC(=O)OCc1ccccc1)Oc1ccc([N+](=O)[O-])cc1 ?
[A] -1

[Q] Sample CC1CC(c2ccccc2)CC(C)N1c1ccc2ccccc2c1 (centres undefined) — what was its growth inhibition?
[A] 13

[Q] Returns the measured growth inhibition for the input compound. Input: Fc1ccc(CN2COc3c(cc(Cl)c4cccnc34)C2)cc1
[A] 1

[Q] Data request, read-out growth inhibition, for NC(=Nc1cc2ccccc2c2ccccc12)/N=C(/N)Nc1cc2ccccc2c2ccccc12
[A] 100

[Q] Entry under review: COc1cc2c(cc1O)C1Cc3ccc(OC)c(O)c3C(C2)N1C (centres undefined) . Reported growth inhibition?
[A] 22

[Q] Can you share its growth inhibition? I mean this compound: CCCC(=O)Oc1ccc(-c2ccccc2Br)cc1
[A] 3

[Q] Fill blank: measured growth inhibition of the compound C=C(Cl)C(=NC(C)(C)C)Nc1ccccc1C is ____.
[A] 20

[Q] Which growth inhibition value is on record for COc1ccc(C2SCC(=O)N2c2nncs2)cc1 (centres undefined) ?
[A] -3

[Q] Look up growth inhibition for this compound: CN(CC(=O)O)c1ncc2c(n1)-c1ccccc1OC2
[A] 8

[Q] Return reported growth inhibition; argument: CCOC(=O)N1CCN(c2cc(C)nc3cc(OC)ccc23)CC1
[A] -1

[Q] Quick check: growth inhibition of CC(=O)c1cc(-c2ccc(C)cc2)nc2c(C)cc(C)cc12 ?
[A] 5

[Q] Which value of growth inhibition has been reported for Cc1ccc(N)c(Cc2c(O)ccc3ccccc23)c1 in the records?
[A] 4

[Q] Entry under review: C[C@]12CCC(=O)C=C1CC[C@@H]1[C@@H]2[C@@H](O)C[C@@]2(C)[C@H]1CC[C@]2(O)C(=O)COC(=O)C1CCCC1 . Reported growth inhibition?
[A] 1

[Q] Which growth inhibition is reported for this compound? Cc1cccc2cc3c(cc12)c(C)cc1ccccc13
[A] -6

[Q] Record request: growth inhibition value, item CC#CS(=O)(=O)c1ccccc1
[A] -1

[Q] Item S=C(N/N=C/c1ccccn1)N1CCCCCC1 has what recorded growth inhibition?
[A] 98

[Q] Would you kindly share the measured growth inhibition for CCCCN(CCCC)CCC(O)(c1ccc(OC)c2ccccc12)C(O)(CCN(CCCC)CCCC)c1ccc(OC)c2ccccc12 (centres undefined) ?
[A] -2

[Q] Consider the compound CC(C(O)c1ccccc1)C(O)(C(F)(F)F)C(F)(F)F (centres undefined) and give its measured growth inhibition.
[A] 6

[Q] # growth inhibition lookup, item Cn1c2ccccc2c2c(C#N)c(C#N)c([N+](=O)[O-])cc21
[A] 29
